Biological target: TAS1R2/TAS1R3 (Homo sapiens, UniProt Q7RTX0+Q8TE23)
Construct: we performed functional expression of the full-length heterodimeric sweet taste TAS1R2/TAS1R3 receptor using HEK293-derived cells; expressed in transfected cells; host or cells: HEK293T-Gα16gust44 cells transfected with pcDNA6-TAS1R2 and pcDNA4-TAS1R3
Sequence (Q8TE23 20-839): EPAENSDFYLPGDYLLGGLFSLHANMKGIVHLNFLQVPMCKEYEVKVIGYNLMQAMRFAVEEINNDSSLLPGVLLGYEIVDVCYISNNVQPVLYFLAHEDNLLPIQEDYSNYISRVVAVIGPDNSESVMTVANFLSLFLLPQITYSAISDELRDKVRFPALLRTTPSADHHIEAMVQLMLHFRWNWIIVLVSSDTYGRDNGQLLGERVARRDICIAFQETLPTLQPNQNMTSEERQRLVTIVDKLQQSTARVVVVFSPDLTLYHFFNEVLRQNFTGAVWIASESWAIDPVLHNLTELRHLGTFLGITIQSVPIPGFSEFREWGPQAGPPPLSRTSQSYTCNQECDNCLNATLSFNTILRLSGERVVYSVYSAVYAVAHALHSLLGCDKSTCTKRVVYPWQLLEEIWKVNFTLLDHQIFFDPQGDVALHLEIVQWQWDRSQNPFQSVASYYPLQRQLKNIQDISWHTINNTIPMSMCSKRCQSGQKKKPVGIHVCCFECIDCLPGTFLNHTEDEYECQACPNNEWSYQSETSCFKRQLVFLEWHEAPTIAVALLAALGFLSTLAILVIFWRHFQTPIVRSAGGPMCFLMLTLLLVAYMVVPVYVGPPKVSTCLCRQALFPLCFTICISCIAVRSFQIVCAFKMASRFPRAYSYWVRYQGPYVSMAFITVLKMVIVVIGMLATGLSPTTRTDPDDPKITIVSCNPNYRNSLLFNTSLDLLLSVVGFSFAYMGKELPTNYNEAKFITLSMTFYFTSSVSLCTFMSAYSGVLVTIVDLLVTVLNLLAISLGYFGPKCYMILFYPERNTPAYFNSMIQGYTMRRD
Sequence (Q7RTX0 21-852): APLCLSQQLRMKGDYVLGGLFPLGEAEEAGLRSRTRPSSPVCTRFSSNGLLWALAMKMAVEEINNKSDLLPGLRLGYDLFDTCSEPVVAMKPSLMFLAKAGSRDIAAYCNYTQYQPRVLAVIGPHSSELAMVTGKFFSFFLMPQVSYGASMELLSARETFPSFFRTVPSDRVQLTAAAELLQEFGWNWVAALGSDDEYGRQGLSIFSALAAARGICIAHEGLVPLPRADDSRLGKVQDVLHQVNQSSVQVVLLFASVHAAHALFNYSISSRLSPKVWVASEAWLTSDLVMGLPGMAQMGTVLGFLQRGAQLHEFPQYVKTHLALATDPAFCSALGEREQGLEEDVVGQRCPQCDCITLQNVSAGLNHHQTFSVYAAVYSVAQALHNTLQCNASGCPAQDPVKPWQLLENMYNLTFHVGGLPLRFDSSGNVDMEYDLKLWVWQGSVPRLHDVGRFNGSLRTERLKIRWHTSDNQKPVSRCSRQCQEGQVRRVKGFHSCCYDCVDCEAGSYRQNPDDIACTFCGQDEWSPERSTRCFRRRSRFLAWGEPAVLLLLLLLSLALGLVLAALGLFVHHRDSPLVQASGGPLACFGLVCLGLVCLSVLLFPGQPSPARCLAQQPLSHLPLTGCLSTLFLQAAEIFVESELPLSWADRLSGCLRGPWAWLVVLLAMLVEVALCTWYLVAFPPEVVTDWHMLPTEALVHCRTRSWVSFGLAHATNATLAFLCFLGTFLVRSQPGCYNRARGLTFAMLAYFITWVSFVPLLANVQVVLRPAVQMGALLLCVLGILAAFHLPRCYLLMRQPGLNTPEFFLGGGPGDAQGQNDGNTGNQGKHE
Assay: Calcium mobilization assay, HEK293T-Gα16gust44 cells expressing TAS1R2/TAS1R3
Assay type: cell-based
Conditions: sweet compound alone (Fig. 3, IMP series)
Rule: measured EC50 below 20 µM gets satisfied; anything equal to or greater than 20 µM gets not satisfied.

compound	assigned class
COC(=O)[C@H](Cc1ccccc1)NC(=O)[C@H](CC(=O)O)NCCC(C)(C)C [Neotame, neotame]	satisfied
OC[C@H]1O[C@H](O[C@]2(CCl)O[C@H](CCl)[C@@H](O)[C@@H]2O)[C@H](O)[C@@H](O)[C@H]1Cl [Sucralose, sucralose]	not satisfied
O=S(=O)(O)NC1CCCCC1 [Cyclamate, cyclamate]	not satisfied
C=C(C)C1CC=C(/C=N/O)CC1 (stereo in doubt) [Perillartine, perillartine]	not satisfied
COc1ccc(CCC(=O)c2c(O)cc(O[C@@H]3O[C@H](CO)[C@@H](O)[C@H](O)[C@H]3O[C@@H]3O[C@@H](C)[C@H](O)[C@@H](O)[C@H]3O)cc2O)cc1O [NHDC, neohesperidine dihydrochalcone]	not satisfied

* * *

Biological target: TAS1R2/TAS1R3 (Homo sapiens, UniProt Q7RTX0+Q8TE23)
Construct: we performed functional expression of the full-length heterodimeric sweet taste TAS1R2/TAS1R3 receptor using HEK293-derived cells; expressed in transfected cells; host or cells: HEK293T-Gα16gust44 cells transfected with pcDNA6-TAS1R2 and pcDNA4-TAS1R3
Sequence (Q8TE23 20-839): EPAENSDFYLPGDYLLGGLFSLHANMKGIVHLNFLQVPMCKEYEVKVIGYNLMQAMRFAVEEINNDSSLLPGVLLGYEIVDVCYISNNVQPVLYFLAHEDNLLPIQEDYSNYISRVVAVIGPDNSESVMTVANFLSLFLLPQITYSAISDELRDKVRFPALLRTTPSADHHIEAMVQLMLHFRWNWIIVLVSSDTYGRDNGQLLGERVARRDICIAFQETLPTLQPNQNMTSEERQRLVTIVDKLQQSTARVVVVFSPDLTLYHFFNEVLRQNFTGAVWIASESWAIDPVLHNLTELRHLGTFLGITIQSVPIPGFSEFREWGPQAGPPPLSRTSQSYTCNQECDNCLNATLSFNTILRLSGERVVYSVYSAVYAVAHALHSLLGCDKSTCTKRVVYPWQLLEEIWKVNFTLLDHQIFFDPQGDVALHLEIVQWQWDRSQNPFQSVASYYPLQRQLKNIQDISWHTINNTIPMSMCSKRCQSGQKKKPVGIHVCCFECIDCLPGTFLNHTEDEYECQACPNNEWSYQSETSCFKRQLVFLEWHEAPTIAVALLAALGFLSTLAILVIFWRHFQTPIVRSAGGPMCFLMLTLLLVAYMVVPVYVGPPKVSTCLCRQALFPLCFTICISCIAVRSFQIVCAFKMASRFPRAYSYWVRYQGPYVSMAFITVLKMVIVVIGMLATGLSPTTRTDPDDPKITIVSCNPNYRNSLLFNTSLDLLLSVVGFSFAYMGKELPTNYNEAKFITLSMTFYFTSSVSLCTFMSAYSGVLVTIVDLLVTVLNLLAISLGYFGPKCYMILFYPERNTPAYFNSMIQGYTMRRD
Sequence (Q7RTX0 21-852): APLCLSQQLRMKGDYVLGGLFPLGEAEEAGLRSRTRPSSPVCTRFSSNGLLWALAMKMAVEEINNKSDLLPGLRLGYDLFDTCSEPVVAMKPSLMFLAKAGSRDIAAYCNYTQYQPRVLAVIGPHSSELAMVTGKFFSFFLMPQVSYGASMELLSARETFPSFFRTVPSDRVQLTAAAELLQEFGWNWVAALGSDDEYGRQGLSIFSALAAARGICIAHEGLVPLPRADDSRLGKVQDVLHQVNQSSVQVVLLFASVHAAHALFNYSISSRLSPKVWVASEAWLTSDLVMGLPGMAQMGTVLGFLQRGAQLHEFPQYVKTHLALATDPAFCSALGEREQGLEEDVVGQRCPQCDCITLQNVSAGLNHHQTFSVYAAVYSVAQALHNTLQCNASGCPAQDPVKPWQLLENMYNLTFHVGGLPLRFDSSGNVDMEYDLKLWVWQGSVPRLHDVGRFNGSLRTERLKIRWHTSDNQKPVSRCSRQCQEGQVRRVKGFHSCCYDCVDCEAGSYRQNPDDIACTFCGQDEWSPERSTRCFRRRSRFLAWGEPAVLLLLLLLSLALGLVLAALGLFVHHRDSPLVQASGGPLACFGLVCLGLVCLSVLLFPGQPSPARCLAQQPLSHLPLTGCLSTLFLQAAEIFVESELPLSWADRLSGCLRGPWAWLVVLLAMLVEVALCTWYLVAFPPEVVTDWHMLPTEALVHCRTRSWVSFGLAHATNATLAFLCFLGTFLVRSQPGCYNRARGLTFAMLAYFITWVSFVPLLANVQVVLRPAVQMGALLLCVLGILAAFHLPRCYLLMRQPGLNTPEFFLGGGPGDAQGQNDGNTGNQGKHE
Test: Calcium mobilization assay, HEK293T-Gα16gust44 cells expressing TAS1R2/TAS1R3
Type: cell-based
Conditions: sweet compound alone (Fig. 5c,d, MSG series)
pEC50: −log10 of the molar value.
quantity name: pEC50

compound	target entity	quantity name	observed result
OC[C@H]1O[C@H](O[C@]2(CCl)O[C@H](CCl)[C@@H](O)[C@@H]2O)[C@H](O)[C@@H](O)[C@H]1Cl [Sucralose, sucralose]	TAS1R2/TAS1R3 (Homo sapiens, UniProt Q7RTX0+Q8TE23)	pEC50	4.25
COC(=O)[C@H](Cc1ccccc1)NC(=O)[C@H](CC(=O)O)NCCC(C)(C)C [Neotame, neotame]	TAS1R2/TAS1R3 (Homo sapiens, UniProt Q7RTX0+Q8TE23)	pEC50	5.96
